- ASSAY SYSTEM: hmGlu5 (Homo sapiens)
- Construct: expressed in transfected cells; host or cells: HEK 293A
- MEASUREMENT DESCRIPTION: mGlu5 Ca2+ flux assay in HEK 293A cells (negative allosteric modulation of glutamate EC80 response)
- Format: cell-based
- RUN PARAMETERS: HEK 293A cells, Ca2+ flux, glutamate EC80; >10,000 = decrease without plateau; read-out: hmGlu5 NAM IC50
Can you tell me IC50 for the items I'm about to list?
Answers are plain numbers, in nM.

COc1c(-c2cnccc2C)cc(-c2nc(-c3ccc(F)cn3)no2)nc1C: 482
Cc1cc(O[C@@H]2CCOC2)cc(-c2noc(-c3ccccn3)n2)n1: 46
Cc1nc(-c2noc(-c3ccc(F)cn3)n2)cc(-c2cc(F)cc(F)c2)c1F: 161
Cc1ccc(-c2nnc(-c3cc(-c4cncc(F)c4)c(F)c(C)n3)o2)nc1: 1080
Cc1ccncc1-c1cc(-c2noc(-c3ccncc3)n2)nc(C)c1F: 221
Cc1ccncc1-c1cc(-c2n[nH]c(-c3ccc(F)cn3)n2)nc(C)c1F: 183

Switching to the query record.
Request: // returns reported IC50 for input Cc1ccncc1-c1cc(-c2nnc(-c3cccc(F)c3)o2)nc(C)c1F
Response: 705

* * *

- ASSAY SYSTEM: hmGlu5 (Homo sapiens, UniProt P41594)
- Construct: expressed in transfected cells; host or cells: HEK 293A
- Sequence (P41594 21-1212): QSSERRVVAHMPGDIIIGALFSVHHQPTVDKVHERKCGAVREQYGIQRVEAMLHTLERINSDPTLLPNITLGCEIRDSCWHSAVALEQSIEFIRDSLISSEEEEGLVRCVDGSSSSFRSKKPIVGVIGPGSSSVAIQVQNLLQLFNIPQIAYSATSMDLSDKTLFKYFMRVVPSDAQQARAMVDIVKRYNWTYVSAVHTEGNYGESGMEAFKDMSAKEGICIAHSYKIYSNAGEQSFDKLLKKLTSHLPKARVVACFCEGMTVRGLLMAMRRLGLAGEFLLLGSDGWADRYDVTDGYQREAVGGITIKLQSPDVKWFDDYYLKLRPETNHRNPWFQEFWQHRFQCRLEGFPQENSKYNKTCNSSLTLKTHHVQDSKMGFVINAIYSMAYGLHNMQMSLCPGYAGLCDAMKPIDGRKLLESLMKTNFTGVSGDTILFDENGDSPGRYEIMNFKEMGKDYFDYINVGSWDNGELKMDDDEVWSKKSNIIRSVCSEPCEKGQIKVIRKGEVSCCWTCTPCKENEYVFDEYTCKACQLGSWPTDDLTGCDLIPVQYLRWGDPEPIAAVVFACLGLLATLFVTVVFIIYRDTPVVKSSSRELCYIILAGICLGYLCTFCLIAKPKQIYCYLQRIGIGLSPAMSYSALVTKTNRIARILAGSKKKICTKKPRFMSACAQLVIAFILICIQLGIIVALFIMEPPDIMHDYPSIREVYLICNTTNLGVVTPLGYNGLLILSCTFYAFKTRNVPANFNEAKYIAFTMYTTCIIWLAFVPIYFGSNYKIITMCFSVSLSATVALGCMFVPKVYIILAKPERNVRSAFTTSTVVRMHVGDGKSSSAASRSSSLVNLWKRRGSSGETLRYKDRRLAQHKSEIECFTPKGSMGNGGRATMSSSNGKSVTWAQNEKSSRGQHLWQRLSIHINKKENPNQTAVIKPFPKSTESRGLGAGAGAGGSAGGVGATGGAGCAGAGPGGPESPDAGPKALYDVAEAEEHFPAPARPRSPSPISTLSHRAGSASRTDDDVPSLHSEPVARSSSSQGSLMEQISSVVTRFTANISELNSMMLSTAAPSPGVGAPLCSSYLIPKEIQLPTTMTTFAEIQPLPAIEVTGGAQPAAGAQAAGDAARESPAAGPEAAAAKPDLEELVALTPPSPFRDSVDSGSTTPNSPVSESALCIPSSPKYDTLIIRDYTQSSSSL
- MEASUREMENT DESCRIPTION: mGlu5 Ca2+ flux assay in HEK 293A cells (negative allosteric modulation of glutamate EC80 response)
- Format: cell-based
- RUN PARAMETERS: HEK293-A; % Glu max at 30 μM; read-out: hmGlu5 NAM Emin (%)
REPORTED METRIC: remaining activity at 30 µM (%)
One number for each entry, in %.

Cc1cccc(-c2nc(-c3cc(-c4cnccc4C)c(F)c(C)n3)no2)c1: 2

Lab note: each compound below needs its remaining activity at 30 µM filled in.
1. Cc1ccncc1-c1cc(-c2nc(-c3ccc(F)cn3)no2)nc(C)c1F
2. Cc1nc(-c2noc(-c3ccc(F)cn3)n2)cc(-c2cncc(C(F)(F)F)c2)c1F
3. Cc1nc(-c2noc(-c3ccc(F)cn3)n2)cc(-c2cc(Cl)cc(C#N)c2)c1F
4. COc1cncc(-c2cc(-c3noc(-c4ccc(F)cn4)n3)nc(C)c2F)c1

Response:
1: 2; 2: 9; 3: 3; 4: 3

Lab note: each compound below needs its remaining activity at 30 µM filled in.
1. COc1ccncc1-c1cc(-c2nnc(-c3ccc(F)cn3)o2)nc(C)c1F
2. COc1c(-c2cncc(F)c2)cc(-c2n[nH]c(-c3cccc(F)c3)n2)nc1C
3. Cc1cc(-c2cncc(F)c2)cc(-c2noc(-c3nc(C)cs3)n2)n1
4. Cc1ccncc1-c1cc(-c2noc(-c3cccc(Cl)n3)n2)nc(C)c1F
5. COc1c(-c2cncc(F)c2)cc(-c2nc(-c3ccc(F)cn3)no2)nc1C
6. Cc1cc(F)nc(-c2cc(-c3noc(-c4ccc(F)cn4)n3)nc(C)c2F)c1
7. Cc1nc(-c2noc(C3CCOCC3)n2)cc(-c2cncc(F)c2)c1F

Response:
[2, 11, 11, 4, 2, 9, 54]

Lab note: each compound below needs its remaining activity at 30 µM filled in.
1. Cc1ccc(-c2cc(-c3nnc(-c4ccc(F)cn4)o3)nc(C)c2F)c(C)n1
2. Cc1nc(-c2nnc(-c3ccc(F)cn3)o2)cc(-c2cnn(C(F)F)c2)c1F
3. COc1cncc(-c2cc(-c3nnc(-c4ccc(F)cn4)o3)nc(C)c2F)c1
4. Cc1ccncc1-c1cc(-c2noc(-c3ccccn3)n2)nc(C)c1F
5. Cc1nc(-c2noc(-c3ccc(F)cn3)n2)cc(-c2cncc(F)c2C)c1F
6. COc1cc(C#N)cc(-c2cc(-c3nnc(-c4ccc(F)cn4)o3)nc(C)c2F)c1
7. Cc1nc(-c2n[nH]c(-c3ccccc3F)n2)cc(-c2cncc(F)c2)c1F

Response:
1: 2; 2: 2; 3: 2; 4: 2; 5: 2; 6: 2; 7: 1

Lab note: each compound below needs its remaining activity at 30 µM filled in.
1. Cc1nc(-c2nc(-c3ccc(F)cn3)no2)cc(-c2cncc(F)c2)c1F
2. Cc1nc(-c2noc(-c3ccc(F)cn3)n2)cc(-c2ccc(Cl)nc2)c1F
3. Cc1ccncc1-c1cc(-c2nc(-c3cccc(F)c3)c[nH]2)nc(C)c1F
4. Cc1ccncc1-c1cc(-c2noc(Cc3ccnn3C)n2)nc(C)c1F
5. Fc1ccc(-c2nc(-c3cc(-c4cncc(F)c4)cc(C4CCC4)n3)no2)nc1
6. Cc1ccc(-c2nc(-c3cc(-c4cnccc4C)c(F)c(C)n3)no2)nc1
7. Cc1nc(-c2noc(-c3ccc(F)cc3F)n2)cc(-c2cncc(F)c2)c1F
8. COCCOc1c(-c2cncc(F)c2)cc(-c2noc(-c3ccc(F)cn3)n2)nc1C

Response:
1: 4; 2: 8; 3: 4; 4: 50; 5: 58; 6: 39; 7: 3; 8: 3

Lab note: each compound below needs its remaining activity at 30 µM filled in.
1. Cc1ccnc(-c2nc(-c3cc(-c4cnccc4C)c(F)c(C)n3)no2)c1
2. Cc1csc(-c2noc(-c3cc(-c4cnccc4C)c(F)c(C)n3)n2)n1

Response:
1: 3; 2: 13

Lab note: each compound below needs its remaining activity at 30 µM filled in.
1. COc1c(-c2cnccc2C)cc(-c2nc(-c3ccc(F)cn3)no2)nc1C
2. COc1c(-c2cnccc2C)cc(-c2noc(-c3ccc(F)cn3)n2)nc1C
3. Cc1nc(-c2nnc(-c3ccc(F)cn3)o2)cc(-c2cnccc2Cl)c1F
4. Cc1cc(O[C@@H]2CCOC2)cc(-c2noc(-c3nc(C)cs3)n2)n1
5. Cc1ccncc1-c1cc(-c2nnc(-c3ccc(F)cn3)o2)nc(C)c1F

Response:
1: 2; 2: 2; 3: 3; 4: 2; 5: 2

Request: // returns reported remaining activity at 30 µM for input Cc1ccncc1-c1cc(-c2n[nH]c(-c3ccc(F)cn3)n2)nc(C)c1F
Response: 2
